- tested_target: Gamma-secretase
- measurement_protocol: Inhibition of human gamma-secretase activity
reported_endpoint: IC50 (nM)

Example entries and their recorded answers appear below.
In [3]: df
Out[3]:
                                   compound  reported_result
0  CC(C)N1C(=O)c2ccccc2C(NC(=O)[C@H](C)NC(=O)Cc2ccco2)C(=O)N1C (some centres undefined)               86
1  CC(C)[C@H](NC(=O)Cc1cc(F)cc(F)c1)C(=O)NC1C(=O)N(C)N(C(C)C)C(=O)c2ccccc21 (some centres undefined)              190
2  CC(C)C[C@H](NC(=O)Cc1cc(F)cc(F)c1)C(=O)NC1C(=O)N(C)N(C(C)C)C(=O)c2ccccc21 (some centres undefined)               37
3  CC(C)N1C(=O)c2ccccc2C(NC(=O)[C@H](C)NC(=O)Cc2ccoc2)C(=O)N1C (some centres undefined)               38
4  C[C@H](NC(=O)Cc1cc(F)cc(F)c1)C(=O)NC1C(=O)N(C)c2ccccc2-c2ccccc21 (some centres undefined)               76

P. CC(C)C[C@H](NC(=O)Cc1cc(F)cc(F)c1)C(=O)Nc1cnc(-c2ccccc2)n(C)c1=O
Q. CC(C)N1C(=O)c2ccccc2C(NC(=O)[C@H](C)NC(=O)Cc2ccsc2)C(=O)N1C (some centres undefined)
Which value of IC50 is smaller, the one for P or the one for Q ? Could you answer with the label of the item you picked?
Q
(Q: 14 nM, P: 720 nM)

P. CC(C)C[C@H](NC(=O)Cc1ccsc1)C(=O)NC1C(=O)N(C)N(C(C)C)C(=O)c2ccccc21 (some centres undefined)
Q. CC(C)N1C(=O)c2ccccc2C(NC(=O)[C@H](C)NC(=O)Cc2ccccc2)C(=O)N1C (some centres undefined)
R. CC(C)N1C(=O)c2ccccc2C(NC(=O)[C@H](C)NC(=O)Cc2cc(F)cc(F)c2)C(=O)N1C (some centres undefined)
S. CC(C)C[C@H](NC(=O)Cc1cc(F)cc(F)c1)C(=O)NC1C(=O)N(C)C(c2ccccc2)=NC1(C)C (some centres undefined)
T. CC(C)C[C@H](NC(=O)[C@@H](O)c1ccccc1)C(=O)N[C@H]1c2ccccc2C[C@H]1O
Exam item: list the entries in increasing order of IC50. To answer, write out the labels according to the requested order.
P, R, T, Q, S

A. CC(C)N1C(=O)c2ccccc2C(NC(=O)[C@H](C)NC(=O)[C@@H](O)c2cc(F)cc(F)c2)C(=O)N1C (some centres undefined)
B. CC(C)N1C(=O)c2ccccc2C(NC(=O)[C@H](C)NC(=O)Cc2cccc(F)c2)C(=O)N1C (some centres undefined)
Compare the recorded IC50 of A and B ; state which is larger. Could you answer with the label of the item you picked?
B
(B: 57 nM, A: 5 nM)

1. CCCCN(C)C(=O)[C@H](CC1CCCCC1)NC(=O)[C@H](CC(C)C)NC(=O)Cc1cc(F)cc(F)c1
2. CC(C)N1C(=O)c2ccccc2C(NC(=O)[C@H](C)NC(=O)CC2CCCCC2)C(=O)N1C (some centres undefined)
Which value of IC50 is smaller, the one for 1 or the one for 2 ? Could you answer with the label of the item you picked?
1
(1: 6 nM, 2: 150 nM)

###

// IC50 lookup, one value per entry
- tested_target: Gamma-secretase
- measurement_protocol: Inhibition of human gamma-secretase activity

Example entries and their recorded answers appear below.
                                   molecule    tested_target  reported_result
0  COc1cc(CC(=O)N[C@@H](C)C(=O)NC2C(=O)N(C)N(C(C)C)C(=O)c3ccccc32)cc(OC)c1 (stereo partly drawn)  Gamma-secretase        > 2500 nM
1  CC(C)N1C(=O)c2ccccc2C(NC(=O)[C@H](C)NC(=O)Cc2ccncc2)C(=O)N1C (stereo partly drawn)  Gamma-secretase        > 2500 nM
2  CCCCN(C)C(=O)[C@H](CC1CCCCC1)NC(=O)[C@H](CC(C)C)NC(=O)[C@@H](O)c1ccccc1  Gamma-secretase             1 nM
3  CC(C)N1C(=O)c2ccccc2C(NC(=O)[C@H](C)NC(=O)Cc2cc(C(F)(F)F)cc(C(F)(F)F)c2)C(=O)N1C (stereo partly drawn)  Gamma-secretase        > 2500 nM
4  CC(C)N1C(=O)c2ccccc2C(NC(=O)[C@H](C)NC(=O)Cc2cccnc2)C(=O)N1C (stereo partly drawn)  Gamma-secretase        > 2500 nM
5  C[C@H](NC(=O)Cc1cc(F)cc(F)c1)C(=O)NC1N=C(c2ccccc2)c2ccccc2N(C)C1=O (stereo partly drawn)  Gamma-secretase           210 nM
6  C[C@H](NC(=O)Cc1cc(F)cc(F)c1)C(=O)NC1C(=O)N(C)N(C)C(=O)c2ccccc21 (stereo partly drawn)  Gamma-secretase             5 nM

# input for lookup
Please report the recorded IC50 for CC(C)N1C(=O)c2ccccc2C(NC(=O)[C@H](C)NC(=O)Cc2cccc3ccccc23)C(=O)N1C (stereo partly drawn) .
> 2500 nM
